These measurements were taken from ChEMBL document CHEMBL4513216.

Catalogue of cytotoxicity at 10 µM readings, one per entry.
# measurement-notes: Toxicity liver stage against HepG2, at 10uM
# Assay type: cell-based
# Design: test concentration 10 uM, cell line HepG2-A16-CD81EGFP
# experimental-parameters: human, HepG2-A16-CD81EGFP cells; read-out: INHIBITION
Your answer should be a plain number; it is taken to be in %.

# compound, obs-value
rows = [
    ("COCc1cc(N(C)Cc2cnccn2)nc(C(C)(C)C)n1", 8.24),
    ("Cc1nc(C)n(C2CCCN(C(=O)c3ccnc(N(C)C)c3)C2)n1 (stereo not given)", -8.36),
    ("CCOCCOC(C)C(=O)NCc1cn2cc(Cl)ccc2n1 (stereo not given)", 8.82),
    ("CC(Cn1cccn1)NCc1csc(-c2ccsc2)n1 (stereo not given)", -3.96),
]

Look up cytotoxicity at 10 µM: COCCNc1nc(N2CCCC2)nc2nccnc12
0.649

----------
# measurement-notes: Toxicity liver stage against HepG2, at 10uM
# Format: cell-based
# Set-up: test concentration 10 uM, cell line HepG2-A16-CD81EGFP
# experimental-parameters: human, HepG2-A16-CD81EGFP cells; read-out: INHIBITION
quantity: cytotoxicity at 10 µM (%)
# unit: % | format: bare number

Solved entries:
# compound, cytotoxicity at 10 µM, %
data = [
    ("Cc1cc(C(=O)NC2CCc3c(ccc(=O)n3CC3CC3)C2)no1 (stereo unspecified)", 2.62),
    ("Cc1cccn2c(CC(=O)N3CCC(CCn4cccn4)CC3)cnc12", -53.1),
    ("O=C(c1c2c(N3CCCC3)ncnc2n2ccccc12)N1CCCC1", -70.7),
    ("CC(C)NC(=O)N1CCN2C(=O)N(Cc3ccc(F)cc3)C[C@H]2C1", 0.88),
]

Please report the recorded cytotoxicity at 10 µM for c1cnc(N2CCC3(COCc4cnc(-c5cccnc5)nc43)C2)nc1 (stereo unspecified) .
2.57

Need cytotoxicity at 10 µM of CC(C)(C)C(=O)N1CCCC1c1nccnc1Cl (stereo unspecified) , thanks.
2.83

So what does the record say about cytotoxicity at 10 µM for COc1cc(CNCc2c(C)nn(C)c2N(C)C)ccc1OCCO ?
-7.59

----------
# cytotoxicity at 10 µM annotations
# measurement-notes: Toxicity liver stage against HepG2, at 10uM
# Assay type: cell-based
# Parameters: test concentration 10 uM, cell line HepG2-A16-CD81EGFP
# experimental-parameters: human, HepG2-A16-CD81EGFP cells; read-out: INHIBITION
Your answer is read as %, so omit the unit and give the number.

Completed entries (count: 2):
# compound, cytotoxicity at 10 µM [%]
rows = [
    ("CNC(=O)c1ccc(C(=O)N2CCC(Nc3cccnn3)CC2)cn1", -19.4),
    ("O=C(O)[C@@H]1CN(C(=O)CSCC2CC2)C[C@H]1c1ccccn1", 5.35),
]

Below: the item to evaluate.
GET /values?readout=cytotoxicity at 10 µM&item= Cc1ccc2c(c1)c(CNC(=O)C1CC(=O)N(C3CCCC3)C1)nn2C (stereo not drawn)
-19.9

----------
# measurement-notes: Toxicity liver stage against HepG2, at 10uM
# Type: cell-based
# Set-up: test concentration 10 uM, cell line HepG2-A16-CD81EGFP
# experimental-parameters: human, HepG2-A16-CD81EGFP cells; read-out: INHIBITION
quantity: cytotoxicity at 10 µM (%)
Unit % implied. Number only.

# molecule, cytotoxicity at 10 µM, %
data = [
    ("COc1ccc(CC(=O)N2CC[C@@H]3CN(C)S(=O)(=O)[C@@H]3CC2)cc1", 4.33),
]

Returns the measured cytotoxicity at 10 µM for the input molecule. Input: Cc1nc2c(N3CCN(Cc4ccccc4)CC3)nc(N)nc2n1C
5.61

// query cytotoxicity at 10 µM value for entry Cn1ccnc1CN1CCc2ncnc(N3CCCC3)c2CC1
-142

Returns the measured cytotoxicity at 10 µM for the input molecule. Input: Cc1cnn(CC(C)NCc2ccc(OCc3noc(C)n3)cc2)c1 (stereo unspecified)
1.16

# input molecule: COc1cc(CN2CCC3(CC(Nc4ccncn4)C3)C2)cc(OC)c1 (stereo unspecified) ; wanted: its cytotoxicity at 10 µM
-9.27

Value lookup for cytotoxicity at 10 µM; key = CC(C)c1nc(CN(C)C(=O)CNS(=O)(=O)c2cccs2)cs1
-6.46
